Numbers sourced from patent US20120231006A1.

Target: human Orai1 (human, UniProt Q96D31 1-301)
Sequence (Q96D31 whole entry): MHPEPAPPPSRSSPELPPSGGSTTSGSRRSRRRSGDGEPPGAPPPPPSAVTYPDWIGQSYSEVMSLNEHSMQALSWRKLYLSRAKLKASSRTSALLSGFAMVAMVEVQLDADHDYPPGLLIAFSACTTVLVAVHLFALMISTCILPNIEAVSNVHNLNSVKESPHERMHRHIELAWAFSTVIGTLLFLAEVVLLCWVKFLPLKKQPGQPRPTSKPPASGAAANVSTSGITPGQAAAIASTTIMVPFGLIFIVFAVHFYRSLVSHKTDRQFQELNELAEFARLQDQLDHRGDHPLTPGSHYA
Experiment: cell-based or functional assay
assayEndpoint: IC50 IFN-γ, whole blood Donor B
A complete answer gives the number and then names the unit.

QUERY: Assign IC50 IFN-γ, whole blood Donor B to the following record: mAb 5A4.2 (antibody, human IgG2, lambda, V domains shown, fully human IgG2 lambda, Campaign 2) VH: QVQLVQSGAEVKKPGASVKVSCKASGYTFTDYYMNWVRQAPGQGLEWMGWINPNSGGTKYAQKFQGRVTMTRDTSIRTAYMELSRLRSDDTAVYYCSREYGGNSDWFDPWGQGTLVTVSS VL: QSVLTQPPSVSGAPGQRVTISCTGSSSNIGAGYDVHWYQQLPGTAPKLLIYGNSNRPSGVPDRFSGSKSGTSASLAITGLQAEDEADYYCQSYDNRLSDSVVIGGGTKLTVQG
RESULT: 2.76 nM

QUERY: Assign IC50 IFN-γ, whole blood Donor B to the following record: mAb 5B1.1 (antibody, human IgG2, lambda, V domains shown, fully human IgG2 lambda, Campaign 2; also called mAb 5Bl1.1) VH: QVQLVQSGAEVKKPGASVKVSCKASGYTFTDYYINWVRQAPGQGLEWMGWINPNSGGSSYAQKFQGRVTMTRDTSISTAHMELIRLRSDDTAVYYCARERGGIEDWFDPWGQGTLVTVSS VL: QSVLTQPPSVSGAPGQRVTISCTGSSSNIGAGYDVHWYQQLPGTAPKLLIYGNSNRPSGVPDRFSGSKSGTSASLAITKFQAEDEAVYYCQSYGSGLSGVVFGGGTKLTVLG
RESULT: 10.7 nM

QUERY: Assign IC50 IFN-γ, whole blood Donor B to the following record: mAb 5B5.2 (antibody, human IgG2, lambda, V domains shown, fully human IgG2 lambda, Campaign 2; same chains as 5B5.1) VH: QVQLVQSGAEVKKPGASVKVSCKASGYTFTDYYINWVRQAPGQGLEWMGWINPNSGGTDYAQKFQGRVTMTRDTSIRTAYMELNRLTSDDTAVYYCAREYGGYEDWFDPWGQGTLVTVSS VL: QSVLTQPPSVSGAPGQRVTISCTGSNSNIGAGFDVHWYQQLPGTVPKLLIYGNNNRPSGVPDRFSGSKSGTSASLAITGLQAEDEADYYCQSYDSRLTVFGGGTKLTVLG
RESULT: 6.58 nM

QUERY: Assign IC50 IFN-γ, whole blood Donor B to the following record: mAb 5C1.1 (antibody, human IgG2, lambda, V domains shown, fully human IgG2 lambda, Campaign 2) VH: QVQLVQSGAEVKKPGASVKVSCKASGYTFTDYYMNWVRQAPGQGLEWMGWINPNSGGTKYAQKFQGRVTMTRDTSIRTAYMELSRLRSDDTAVYYCAREYGGNSDWFDPWGQGTLVTVSS VL: QSVLTQPPSVSGAPGQRVTISCTGSSSNIGAGYDVHWYQQLPGTAPKLLIYGNSNRPSGVPDRFSGSKSGTSASLAITGLQAEDEADYYCQSYDNRLSDSVVIGGGTKLAVQG
RESULT: 2.41 nM
